Measured Relative binding activity, % values are reported for all entries that follow.
- target-or-test-system: T1, Biotin-huCGRPaSA (human, not fully specified; biotin (position not given))
- T1 construct: exact construct ('aSA') not explained; also called Biotin CGRPaSA; full-length (1-37) CGRP
- T1 peptide: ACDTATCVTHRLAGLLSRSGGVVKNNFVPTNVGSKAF
- experimental-details: ELISA, supernatant; relative to chimeric C245
Just the number please, in %, no unit attached.

binder	Relative binding activity, %, %
hu196 (antibody, V domains shown, 3H10 HC-1/1A2 LC2-1) VH: QVQLVQSGAEVKKPGASVKVSCKASGYTFTDYNMHWVRQAPGQGLEWMGYIYPYNGHTVYNQKFRNRVTMTVDTSSSTAYMELRSLRSDDTAVYYCAKEGLGGYWGQGTLVTVSS VL: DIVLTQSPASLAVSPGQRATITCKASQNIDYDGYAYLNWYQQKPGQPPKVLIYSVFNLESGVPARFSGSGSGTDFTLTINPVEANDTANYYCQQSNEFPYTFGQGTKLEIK	45

Now take the following binder into account.
Input hu59 (antibody, V domains shown, 1F5 HC-3/1F5 LC1-3) VH: QVQLVQSGAEVKKPGASVKVSCKASGYTFTDFNMHWVRQAPGQGLEWMGYIYPYNGDVVYNQNFTNRVTLTVDTSSSTAYMELRSLRSDDTAVYYCAREGLGGYWGQGTLVTVSS VL: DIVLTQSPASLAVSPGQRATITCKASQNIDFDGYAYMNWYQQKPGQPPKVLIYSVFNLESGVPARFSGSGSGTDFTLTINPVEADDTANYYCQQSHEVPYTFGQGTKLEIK . Output Relative binding activity, %: 70

Sourced from patent US20260125454A1
